TESTED SYSTEM: 11β-HSD1 (Homo sapiens)
Sequence (P28845 whole entry): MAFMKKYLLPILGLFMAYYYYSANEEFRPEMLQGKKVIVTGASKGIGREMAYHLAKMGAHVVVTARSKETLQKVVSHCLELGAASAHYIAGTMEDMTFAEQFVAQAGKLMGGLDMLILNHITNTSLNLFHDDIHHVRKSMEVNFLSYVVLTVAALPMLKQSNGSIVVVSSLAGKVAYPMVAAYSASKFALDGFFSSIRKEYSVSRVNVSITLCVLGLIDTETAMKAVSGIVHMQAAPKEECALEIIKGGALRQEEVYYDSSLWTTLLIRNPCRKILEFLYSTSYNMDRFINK
METHOD SUMMARY: Biological Test Example 4: microsomal 11β-HSD1 in the presence of 50% human plasma
TEST PARAMETERS: IC50 in Test Example 4 divided by IC50 in Test Example 1
MEASURE: Shift

Cc1cc(-c2ccc([C@H](C)N3CC[C@](CCCO)(c4ccccc4)OC3=O)cc2)cc(C)[n+]1[O-] [EXAMPLE 120] : 3.6
Cc1nccc(-c2ccc([C@H](C)N3CC[C@](CC(C)(C)C#N)(c4ccc(F)cc4)OC3=O)cc2)n1 [EXAMPLE 142] : 3.1

I. Cc1cc(-c2ccc([C@H](C)N3CC[C@](CCNS(C)(=O)=O)(c4ccccc4)OC3=O)cc2)ccn1 [EXAMPLE 103]
II. Cc1cc(-c2ccc([C@H](C)N3CC[C@](CC(C)(C)O)(c4ccc(F)cc4)OC3=O)cc2)ccn1 [EXAMPLE 76]
Q: Which value of Shift is numerically greater: that of I or that of II ? Selection: enter the item's label.
Result: II
